A collection of compounds and their measured HLE, % @ concentration
# tgt: Human leukocyte elastase (HLE) (Homo sapiens, UniProt P08246)
# Construct: gift of R. Senior, Washington University
# Sequence (P08246 30-267): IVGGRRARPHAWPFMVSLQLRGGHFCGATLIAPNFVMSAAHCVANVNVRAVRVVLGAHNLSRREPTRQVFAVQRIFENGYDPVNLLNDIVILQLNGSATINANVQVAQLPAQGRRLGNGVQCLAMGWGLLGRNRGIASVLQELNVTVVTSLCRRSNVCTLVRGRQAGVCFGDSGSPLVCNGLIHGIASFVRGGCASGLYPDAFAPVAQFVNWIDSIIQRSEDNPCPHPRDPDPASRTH
# test-protocol: Human leukocyte elastase assay
# Assay type: biochemical
# condition-description: @ 1 (concentration unit not given)
The reply should be a number in % @ 1, with the unit left off.

Answered cases to consult:
* Cc1c(CNC(=O)N[C@H](C)c2ccccc2)ccc2nc(N[C@@H](Cc3ccccc3)C(=O)N(C)Cc3ccccc3)oc(=O)c12 [Example 12g] | 45
* COc1ccc(C[C@H](Nc2nc3ccc(CNC(=O)NCc4ccccc4)c(C)c3c(=O)o2)C(=O)N(C)Cc2ccccc2)cc1 [Example 12j] | 63
* Cc1c(CNC(=O)Nc2ccccc2)ccc2nc(N[C@@H](Cc3ccccc3)C(=O)N(C)Cc3ccccc3)oc(=O)c12 [Example 12f] | 55
* COc1ccc(C[C@H](Nc2nc3ccc(CNC(=O)CC(C)(C)C)c(C)c3c(=O)o2)C(=O)N(C)Cc2ccccc2)cc1 [Example 9m] | 73
* CCN(C(=O)[C@H](Cc1ccc(OC)cc1)Nc1nc2ccc(N(C)C)c(C)c2c(=O)o1)c1ccccc1 [Example 16b] | 49

Form: compound = Cc1c(CNC(=O)N(C)c2ccccc2)ccc2nc(N[C@@H](Cc3ccccc3)C(=O)N(C)Cc3ccccc3)oc(=O)c12 [Example 12i] ; HLE, % @ concentration = 47

Data point: CCN(Cc1ccccc1)C(=O)[C@H](Cc1ccccc1)Nc1nc2c(Br)cc(CNC(=O)CN3CCOCC3)c(C)c2c(=O)o1 [Example 15g] ; HLE, % @ concentration = 22

Looking up Cc1c(CNC(=O)OC2CCCC2)ccc2nc(N[C@@H](Cc3ccccc3)C(=O)N(C)Cc3ccccc3)oc(=O)c12 [Example 18f] , I see its HLE, % @ concentration listed as 59

Consider COc1ccc(C[C@H](Nc2nc3ccc(CNC(=O)Cc4ccc(N(C)C)cc4)c(C)c3c(=O)o2)C(=O)N(C)Cc2ccccc2)cc1 [Example 9o] . Its measured HLE, % @ concentration is 73

HLE, % @ concentration measured on COc1ccc(C[C@H](Nc2nc3ccc(CNC(=O)OC(C)(C)C)c(C)c3c(=O)o2)C(=O)N(C)c2ccc(Cl)cc2)cc1 [Example 7r] = 44

Entry Cc1c(CNC(=O)OC(C)(C)C)ccc2nc(N[C@@H](Cc3ccc(Cl)cc3)C(=O)N(C)Cc3ccccc3)oc(=O)c12 [Example 7p] , HLE, % @ concentration reported as 42
